Biological target: recombinant MFP-2 (Homo sapiens)
Construct: His-tag (N)
Sequence (P51659 1-736): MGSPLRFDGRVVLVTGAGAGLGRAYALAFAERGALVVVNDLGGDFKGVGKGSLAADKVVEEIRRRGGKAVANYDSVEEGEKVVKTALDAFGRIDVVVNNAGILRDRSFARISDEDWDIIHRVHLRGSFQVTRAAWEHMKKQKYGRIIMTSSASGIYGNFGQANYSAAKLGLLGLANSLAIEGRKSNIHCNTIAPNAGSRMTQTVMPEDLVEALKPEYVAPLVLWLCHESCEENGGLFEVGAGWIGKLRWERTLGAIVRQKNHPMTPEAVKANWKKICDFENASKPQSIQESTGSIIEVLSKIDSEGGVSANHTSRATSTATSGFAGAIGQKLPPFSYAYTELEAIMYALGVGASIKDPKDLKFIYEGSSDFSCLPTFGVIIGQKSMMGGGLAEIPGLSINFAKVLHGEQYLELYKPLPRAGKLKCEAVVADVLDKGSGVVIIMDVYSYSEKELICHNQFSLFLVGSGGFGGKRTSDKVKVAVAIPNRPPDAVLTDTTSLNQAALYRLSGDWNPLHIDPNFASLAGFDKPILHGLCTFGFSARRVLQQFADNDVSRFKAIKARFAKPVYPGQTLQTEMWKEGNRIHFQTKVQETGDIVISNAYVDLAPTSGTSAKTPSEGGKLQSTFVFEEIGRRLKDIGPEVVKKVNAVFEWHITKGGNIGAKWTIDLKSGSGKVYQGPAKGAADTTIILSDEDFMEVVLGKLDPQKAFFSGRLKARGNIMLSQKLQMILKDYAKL
Experiment: Measurement of Kd value between MFP-2 and Intal using Biacore
Conditions: Biacore 3000; Intal-immobilized gold chip; MFP-2 25, 12.5 and 6.25 nM; global fitting
metric: Kd (nM)
Only the number, expressed in nM, is required.

Reported Kd for O=C(O)c1cc(=O)c2c(OCC(O)COc3cccc4oc(C(=O)O)cc(=O)c34)cccc2o1 : what is it?
0.64
